Items are presented alongside their recorded Inhibition.
- Tested on: Plasmodium falciparum
- assay method text: GSK_TCMDC: Inhibition of Plasmodium falciparum Dd2 in whole red blood cells, using parasite LDH activity as an index of growth. Test compounds present at 2uM
- Type: functional
Lab book: enter the figure in %, no units written.

Enquiry: What Inhibition appears in the records for this compound with Plasmodium falciparum? Cc1cc(NC(=O)NCCN2CCC(NC(=O)c3cccc(Br)c3)C2)c2ccccc2n1.O=C(O)C(F)(F)F (centres undefined)
Return: 60

Enquiry: What Inhibition appears in the records for this compound with Plasmodium falciparum? O=C(/C=C/c1ccc(Cl)c(Cl)c1)N1CCC(NCc2c[nH]c3ccccc23)CC1
Return: 4

Enquiry: What Inhibition appears in the records for this compound with Plasmodium falciparum? COc1cc(CCNC(=O)Cc2ccc3ccccc3c2)ccc1OCc1ccccc1
Return: 61

Enquiry: What Inhibition appears in the records for this compound with Plasmodium falciparum? N#Cc1ccc(NC(=O)Nc2ccc(OC(F)(F)F)cc2)cc1
Return: 91

Enquiry: What Inhibition appears in the records for this compound with Plasmodium falciparum? CCCOc1cc2c(cc1OCCC)C(C=Cc1ccc(Cl)cc1Cl)=NC(C)C2.Cl (centres undefined)
Return: 75

Enquiry: What Inhibition appears in the records for this compound with Plasmodium falciparum? Cc1noc(C)c1-c1ccc2c(Nc3ccccc3C(C)(C)C)c(C(=O)NC3CCCC3)cnc2c1.Cl
Return: 79

Enquiry: What Inhibition appears in the records for this compound with Plasmodium falciparum? Cn1nc(-c2ccc(NC(=O)Nc3cc(C(F)(F)F)ccc3F)c(F)c2)c2cnc(NCCCN3CCOCC3)nc21.O=C(O)C(F)(F)F
Return: 62

Enquiry: What Inhibition appears in the records for this compound with Plasmodium falciparum? COc1ccc(OC)c(NC(=O)C2c3ccccc3C(=O)N(CC(C)C)C2c2cccs2)c1 (centres undefined)
Return: 66

Enquiry: What Inhibition appears in the records for this compound with Plasmodium falciparum? O=C(NC1CCCCC1)N(Cc1ccc(-c2ccc(CNCc3ccc4c(c3)OCO4)cc2)cc1)C1CCN(Cc2ccccc2)CC1.O=C(O)C(F)(F)F
Return: 72

###

Items are presented alongside their recorded Inhibition.
- Tested on: Plasmodium falciparum
- assay method text: GSK_TCMDC: Inhibition of Plasmodium falciparum Dd2 in whole red blood cells, using parasite LDH activity as an index of growth. Test compounds present at 2uM
- Format: functional
Lab book: enter the figure in %, no units written.

Before answering, review these 2 worked examples.
> print(dat)
                                 mol.smiles  experimental.value
1  COc1ccc(CN2CCC(Oc3cccc(NC(=O)c4ccc(C(F)(F)F)cc4)c3)CC2)cc1.O=C(O)C(F)(F)F                  20
2  CCCC(=O)Nc1ccc(Nc2nc(C)cc(N3CCCC3)n2)cc1                  46

Enquiry: Report Inhibition for COc1ccc(C=C2SC(=O)N=C2Nc2ccccc2)c(OC)c1 please.
Return: 89

Enquiry: Report Inhibition for COc1ccc(NC(=O)[C@H](CC(C)C)Nc2ccnc(NCCc3ccc(F)cc3)n2)cc1.O=C(O)C(F)(F)F please.
Return: 22

Enquiry: Report Inhibition for S=C(NCCCCCN1CCC(c2c[nH]c3ccccc23)CC1)Nc1cc(Cl)cc(Cl)c1 please.
Return: 35

Enquiry: Report Inhibition for O=C(O)C(F)(F)F.OCCN1CCN(Cc2ccc(-c3cccc(-c4nc5cc(C(F)(F)F)ccc5[nH]4)c3)cc2)CC1 please.
Return: 83

Enquiry: Report Inhibition for CCn1c(Sc2ccc(C#N)c([N+](=O)[O-])c2)nnc1-c1cc(OC)cc(OC)c1 please.
Return: 82

Enquiry: Report Inhibition for CN(C)CCCNCc1ccc(-c2ccc(C(F)(F)F)cc2)cc1 please.
Return: 35

Enquiry: Report Inhibition for Cc1[nH]c(C)c(-c2ccc(-c3cccc(C(F)(F)F)c3)nc2)c(=O)c1Br please.
Return: 96

###

- Test system: HepG2
- assay method text: GSK_TCMDC: Percent inhibition of human HepG2 cell line. Test compounds present at 10uM.
- Assay type: functional
endpoint name: Inhibition (%)
Lab book: enter the figure in %, no units written.

> print(dat)
                                   compound  tested.on  endpoint.name  experimental.value
1                Nc1nc(N)c2c(ccc3ccccc32)n1      HepG2     Inhibition                  60
2  CCCCCCN1CCC(NCc2ccc(OCCN3CCCC3)cc2)CC1.O=C(O)C(F)(F)F      HepG2     Inhibition                  23
3  Cc1cc(C(F)(F)F)nn1-c1ccc(NC(=O)c2ccco2)cc1      HepG2     Inhibition                  14
4      CCN1CCC(NCc2ccc(-c3ccc(Cl)s3)cc2)CC1      HepG2     Inhibition                  42
5  CCOc1ccc2c(=NN=Cc3cccc(Cl)c3)cc(C)[nH]c2c1      HepG2     Inhibition                   0
6  CC(Nc1ccc2c(c1)OCCO2)C(=O)Nc1cc(C(F)(F)F)ccc1N1CCOCC1 (centres undefined)      HepG2     Inhibition                   0

Enquiry: Report Inhibition for CN1CCN(CC2(Nc3nccc(NCCc4cn(C)c5ccccc45)n3)CCCCC2)CC1 please.
Return: 67

Enquiry: Report Inhibition for Cl.N#Cc1ccc(CCNc2nccc(-c3cccc(CN4CCNCC4)c3)n2)cc1 please.
Return: 5

Enquiry: Report Inhibition for CN1CCCC1CCNC(=O)[C@H](CC1CCCCC1)NC(=O)c1ccc(O)c(-c2ccc(Cl)c(Cl)c2)c1 (some centres undefined) please.
Return: 0

Enquiry: Report Inhibition for Cc1cccc2nc(-c3cccc(-c4cccc(CN5CCC(CO)CC5)c4)c3)[nH]c12.O=C(O)C(F)(F)F please.
Return: 4

Enquiry: Report Inhibition for CCCNC(=O)C1Cc2c([nH]c3cc(Br)ccc23)C2(CCN(CCc3ccccc3)CC2)N1 (centres undefined) please.
Return: 15

###

Items are presented alongside their recorded Inhibition.
- Tested on: Plasmodium falciparum
- assay method text: GSK_TCMDC: Inhibition of Plasmodium falciparum Dd2 in whole red blood cells, using parasite LDH activity as an index of growth. Test compounds present at 2uM
- Format: functional
Lab book: enter the figure in %, no units written.

Enquiry: Report Inhibition for COc1ccc(-n2c(=O)c3c(n4c(SC(C)C)nnc24)-c2ccccc2CC32CCCCC2)cc1 please.
Return: 15

Enquiry: Report Inhibition for COc1ccc(-c2cc(Nc3nc(-c4cccc(Cl)c4)nc4ccccc34)ccn2)cc1 please.
Return: 17

Enquiry: Report Inhibition for CC[C@H]1CN(Cc2ccco2)CC[C@H]1CCCc1ccnc2ccc(O)cc12 please.
Return: 14

###

- Test system: HepG2
- assay method text: GSK_TCMDC: Percent inhibition of human HepG2 cell line. Test compounds present at 10uM.
- Format: functional
# Inhibition >= 30% gives true (1), anything below gives false (0)

> print(dat)
                                   compound  label.value
1  Cc1ccccc1C1CCN(C2CCC(NC(=O)c3ccc(-c4ccccc4F)o3)CC2)CC1 (stereo not drawn)     true (1)
2  COc1cc(Cc2cnc(N)nc2N)ccc1OCc1ccc(F)c(F)c1    false (0)

Enquiry: Is reported Inhibition greater than or equal to 30% here: Cc1cc(Nc2ncc3c(n2)N(C2CCC2)CC3)ccc1N1CCN(C)CC1.Cl
Return: false (0)

Enquiry: Is reported Inhibition greater than or equal to 30% here: Br.CC1(C)NC(N)=NC(=N)N1OCc1cccs1
Return: true (1)

Enquiry: Is reported Inhibition greater than or equal to 30% here: COc1ccc(S(=O)(=O)N2CCC(NS(=O)(=O)c3ccc(F)cc3)CC2)cc1
Return: false (0)

Enquiry: Is reported Inhibition greater than or equal to 30% here: CS(=O)(=O)CCNCc1ccc(-c2cc3c(Nc4ccc(OCc5cccc(F)c5)c(Cl)c4)ncnc3s2)[nH]1
Return: false (0)

Enquiry: Is reported Inhibition greater than or equal to 30% here: CC(=O)c1cccc2c(NC(=O)Nc3ccc4nccc(N5CCN(C)CC5)c4c3)cccc12.Cl
Return: false (0)

Enquiry: Is reported Inhibition greater than or equal to 30% here: CN1CCC(NC(=O)c2cc(Oc3ccc4c(c3)CCN4C(=O)Nc3cccc(C(F)(F)F)c3)ccn2)CC1.O=C(O)C(F)(F)F
Return: false (0)

Enquiry: Is reported Inhibition greater than or equal to 30% here: COc1ccc(CCN(C)CCc2ccc(NC(=O)c3cccc4c(=O)c5ccccc5sc34)cc2)cc1
Return: false (0)

Enquiry: Is reported Inhibition greater than or equal to 30% here: CC(=O)Nc1ccc2[nH]cc(C3CCN(CC4CCN(C(=O)/C=C/c5ccc(Cl)c(Cl)c5)CC4)CC3)c2n1
Return: false (0)
